- EXPERIMENTAL_SYSTEM: T1, SNTB1, Q13884
- T1 sequence (Q13884 107-205, limits assumed, looked up): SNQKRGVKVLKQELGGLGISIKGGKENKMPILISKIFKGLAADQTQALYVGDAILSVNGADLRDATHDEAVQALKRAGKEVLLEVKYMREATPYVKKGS
- ASSAY_REMARKS: holdup assay
- Parameters: key: below the threshold = too weak to quantify, mostly under pKd 3.1 to 4
- CONDITION_DESCRIPTION: plain residues with an end cap or a label only (N-terminal biotin on a linker: ado-ado)
# if value of pKd reaches 4, tag YES; if it stays below, tag NO

Q: Would you say SVTSERETNI [SLC16A7, O60669] shows pKd at minimum 4?
Result: YES

Q: Decide: pKd of SPDRDRESIV [SCN5A, Q14524] >= 4?
Result: YES

Q: Does the binder DPAESMESLV [PTPRG, P23470] have recorded pKd that is 4 or more?
Result: YES
